Here the recorded RLU is given for each entry.
Biological target: mouse Tas2r108 (Mus musculus)
Construct: expressed in transfected cells; host or cells: HEK293T-Gα16gust44
Sequence (Q9JKT3 1-297): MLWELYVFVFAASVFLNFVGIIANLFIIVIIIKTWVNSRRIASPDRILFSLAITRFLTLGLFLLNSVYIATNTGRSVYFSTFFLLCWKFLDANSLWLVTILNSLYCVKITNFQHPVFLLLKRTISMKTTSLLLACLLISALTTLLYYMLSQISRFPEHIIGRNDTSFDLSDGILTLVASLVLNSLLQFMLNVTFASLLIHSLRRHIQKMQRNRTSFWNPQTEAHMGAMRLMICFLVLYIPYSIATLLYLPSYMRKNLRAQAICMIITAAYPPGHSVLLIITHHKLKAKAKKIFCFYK
Assay: Calcium imaging assay (FLIPR), HEK293T-Gα16gust44 cells transfected with mouse Tas2r108
Type: cell-based
Conditions: Time 191.562 s
OUTCOME_MEASURE: RLU (RLU)

> print(dat)
                                     smiles  outcome.measure      val
1  C[C@H](CCC(=O)NCC(=O)O)[C@H]1CC[C@H]2[C@@H]3[C@H](O)C[C@@H]4C[C@H](O)CC[C@]4(C)[C@H]3C[C@H](O)[C@]12C              RLU  190.798
2  C[C@H](CCC(=O)O)[C@H]1CC[C@H]2[C@@H]3CC[C@@H]4C[C@H](O)CC[C@]4(C)[C@H]3C[C@H](O)[C@]12C              RLU  528.694
3  C[C@H](CCC(=O)NCCS(=O)(=O)O)[C@H]1CC[C@H]2[C@@H]3[C@H](O)C[C@@H]4C[C@H](O)CC[C@]4(C)[C@H]3C[C@H](O)[C@]12C              RLU  229.727
4  C[C@H](CCC(=O)O)[C@H]1CC[C@H]2[C@@H]3[C@H](O)C[C@@H]4C[C@H](O)CC[C@]4(C)[C@H]3C[C@H](O)[C@]12C              RLU  162.947

* * *

Target: human TAS2R4 (Homo sapiens, UniProt Q9NYW5)
Construct: expressed in transfected cells; host or cells: HEK293T-Gα16gust44
Sequence (Q9NYW5 whole entry): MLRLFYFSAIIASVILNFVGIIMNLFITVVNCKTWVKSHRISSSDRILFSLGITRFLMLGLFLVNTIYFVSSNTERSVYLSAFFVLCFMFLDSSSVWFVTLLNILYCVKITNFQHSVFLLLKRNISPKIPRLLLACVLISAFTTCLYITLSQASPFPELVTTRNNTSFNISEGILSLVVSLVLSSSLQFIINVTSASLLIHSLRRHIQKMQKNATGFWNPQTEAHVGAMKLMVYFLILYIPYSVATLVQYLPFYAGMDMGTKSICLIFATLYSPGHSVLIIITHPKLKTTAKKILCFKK
Test: Calcium imaging assay (FLIPR), HEK293T-Gα16gust44 cells transfected with human TAS2R4; further: test concentration or dose not given here
Assay type: cell-based
Conditions: Time (s) 66.781 (TCA, TLCA: 66.782)
OUTCOME_MEASURE: RLU, fluorescence trace (RLU)

MOLECULE	ENDPOINT_UNIT	VAL
C[C@H](CCC(=O)NCCS(=O)(=O)O)[C@H]1CC[C@H]2[C@@H]3CC[C@@H]4C[C@H](O)CC[C@]4(C)[C@H]3CC[C@]12C [Taurolithocholic Acid, taurolithocholic acid]	RLU	280.396
C[C@H](CCC(=O)O)[C@H]1CC[C@H]2[C@@H]3[C@H](O)C[C@@H]4C[C@H](O)CC[C@]4(C)[C@H]3C[C@H](O)[C@]12C [Cholic Acid, cholic acid]	RLU	681.18
C[C@H](CCC(=O)O)[C@H]1CC[C@H]2[C@@H]3[C@@H](O)C[C@@H]4C[C@H](O)CC[C@]4(C)[C@H]3CC[C@]12C [Ursodeoxycholic Acid, ursodeoxycholic acid]	RLU	395
C[C@H](CCC(=O)NCC(=O)O)[C@H]1CC[C@H]2[C@@H]3[C@H](O)C[C@@H]4C[C@H](O)CC[C@]4(C)[C@H]3C[C@H](O)[C@]12C [Glycocholic Acid, glycocholic acid]	RLU	883.058
C[C@H](CCC(=O)NCCS(=O)(=O)O)[C@H]1CC[C@H]2[C@@H]3[C@H](O)C[C@@H]4C[C@H](O)CC[C@]4(C)[C@H]3C[C@H](O)[C@]12C [Taurocholic Acid, taurocholic acid]	RLU	619.641
C[C@H](CCC(=O)O)[C@H]1CC[C@H]2[C@@H]3CC[C@@H]4C[C@H](O)CC[C@]4(C)[C@H]3C[C@H](O)[C@]12C [Deoxycholic Acid, deoxycholic acid]	RLU	369.018

* * *

# RLU per record follows
Target: mouse Tas2r144 (Mus musculus)
Construct: expressed in transfected cells; host or cells: HEK293T-Gα16gust44
Sequence (Q7TQB8 whole entry): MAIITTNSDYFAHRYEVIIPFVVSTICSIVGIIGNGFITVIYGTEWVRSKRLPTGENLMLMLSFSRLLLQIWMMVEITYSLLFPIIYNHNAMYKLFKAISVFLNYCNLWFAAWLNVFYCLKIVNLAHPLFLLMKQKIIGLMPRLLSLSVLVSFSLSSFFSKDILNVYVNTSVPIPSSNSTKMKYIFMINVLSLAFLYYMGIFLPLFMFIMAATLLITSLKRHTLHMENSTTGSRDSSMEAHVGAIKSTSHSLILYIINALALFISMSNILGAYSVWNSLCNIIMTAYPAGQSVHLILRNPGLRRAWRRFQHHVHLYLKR
Experiment: Calcium imaging assay (FLIPR), HEK293T-Gα16gust44 cells transfected with mouse Tas2r144
Type: cell-based
Settings: Time 82.781 s
OUTCOME_MEASURE: RLU (RLU)

> print(dat)
                                     smiles                measured.target  outcome.measure      val
1  C[C@H](CCC(=O)NCC(=O)O)[C@H]1CC[C@H]2[C@@H]3[C@H](O)C[C@@H]4C[C@H](O)CC[C@]4(C)[C@H]3C[C@H](O)[C@]12C  mouse Tas2r144 (Mus musculus)              RLU  423.408
2  C[C@H](CCC(=O)O)[C@H]1CC[C@H]2[C@@H]3[C@H](O)C[C@@H]4C[C@H](O)CC[C@]4(C)[C@H]3C[C@H](O)[C@]12C  mouse Tas2r144 (Mus musculus)              RLU  627.467
3  C[C@H](CCC(=O)NCCS(=O)(=O)O)[C@H]1CC[C@H]2[C@@H]3[C@H](O)C[C@@H]4C[C@H](O)CC[C@]4(C)[C@H]3C[C@H](O)[C@]12C  mouse Tas2r144 (Mus musculus)              RLU  526.613
4  C[C@H](CCC(=O)NCCS(=O)(=O)O)[C@H]1CC[C@H]2[C@@H]3CC[C@@H]4C[C@H](O)CC[C@]4(C)[C@H]3CC[C@]12C  mouse Tas2r144 (Mus musculus)              RLU  446.511

* * *

Target: human TAS2R1 (Homo sapiens, UniProt Q9NYW7)
Construct: expressed in transfected cells; host or cells: HEK293T-Gα16gust44
Sequence (Q9NYW7 whole entry): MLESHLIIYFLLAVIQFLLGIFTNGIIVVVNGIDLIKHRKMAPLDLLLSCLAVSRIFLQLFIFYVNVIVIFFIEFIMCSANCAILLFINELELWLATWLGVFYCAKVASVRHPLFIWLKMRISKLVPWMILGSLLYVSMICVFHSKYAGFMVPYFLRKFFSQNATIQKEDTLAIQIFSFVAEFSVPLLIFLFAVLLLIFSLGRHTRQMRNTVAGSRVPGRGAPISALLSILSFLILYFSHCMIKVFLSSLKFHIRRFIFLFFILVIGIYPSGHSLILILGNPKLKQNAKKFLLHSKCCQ
Experiment: Calcium imaging assay (FLIPR), HEK293T-Gα16gust44 cells transfected with human TAS2R1
Assay type: cell-based
Conditions: Time 38.781 s
OUTCOME_MEASURE: RLU

> print(dat)
                                     smiles  outcome.measure          val
1  C[C@H](CCC(=O)O)[C@H]1CC[C@H]2[C@@H]3CC[C@@H]4C[C@H](O)CC[C@]4(C)[C@H]3C[C@H](O)[C@]12C              RLU  296.049 RLU
2  C[C@H](CCC(=O)NCC(=O)O)[C@H]1CC[C@H]2[C@@H]3[C@H](O)C[C@@H]4C[C@H](O)CC[C@]4(C)[C@H]3C[C@H](O)[C@]12C              RLU  484.171 RLU
3  C[C@H](CCC(=O)NCCS(=O)(=O)O)[C@H]1CC[C@H]2[C@@H]3[C@H](O)C[C@@H]4C[C@H](O)CC[C@]4(C)[C@H]3C[C@H](O)[C@]12C              RLU  303.962 RLU
4  C[C@H](CCC(=O)NCCS(=O)(=O)O)[C@H]1CC[C@H]2[C@@H]3CC[C@@H]4C[C@H](O)CC[C@]4(C)[C@H]3CC[C@]12C              RLU  448.367 RLU

* * *

Biological target: mouse Tas2r144 (Mus musculus)
Construct: expressed in transfected cells; host or cells: HEK293T-Gα16gust44
Assay: Calcium imaging assay (FLIPR), HEK293T-Gα16gust44 cells transfected with mouse Tas2r144
Type: cell-based
Conditions: Time 84.781 s
Measured RLU by item
OUTCOME_MEASURE: RLU (RLU)

> print(dat)
                                     smiles      val
1  C[C@H](CCC(=O)NCCS(=O)(=O)O)[C@H]1CC[C@H]2[C@@H]3CC[C@@H]4C[C@H](O)CC[C@]4(C)[C@H]3CC[C@]12C  409.522
2  C[C@H](CCC(=O)O)[C@H]1CC[C@H]2[C@@H]3[C@H](O)C[C@@H]4C[C@H](O)CC[C@]4(C)[C@H]3C[C@H](O)[C@]12C  627.103
3  C[C@H](CCC(=O)NCC(=O)O)[C@H]1CC[C@H]2[C@@H]3[C@H](O)C[C@@H]4C[C@H](O)CC[C@]4(C)[C@H]3C[C@H](O)[C@]12C  393.748
4  C[C@H](CCC(=O)NCCS(=O)(=O)O)[C@H]1CC[C@H]2[C@@H]3[C@H](O)C[C@@H]4C[C@H](O)CC[C@]4(C)[C@H]3C[C@H](O)[C@]12C  546.451

* * *

Target: human TAS2R4 (Homo sapiens, UniProt Q9NYW5)
Construct: expressed in transfected cells; host or cells: HEK293T-Gα16gust44
Assay: Calcium imaging assay (FLIPR), HEK293T-Gα16gust44 cells transfected with human TAS2R4; further: test concentration or dose not given here
Format: cell-based
Settings: Time (s) 239.547
// RLU, fluorescence trace lookup, one value per entry
OUTCOME_MEASURE: RLU, fluorescence trace (RLU)

> print(dat)
                                     smiles                           measured.target  endpoint.unit      val
1  C[C@H](CCC(=O)O)[C@H]1CC[C@H]2[C@@H]3[C@H](O)C[C@@H]4C[C@H](O)CC[C@]4(C)[C@H]3C[C@H](O)[C@]12C  human TAS2R4 (Homo sapiens, UniProt Q9NYW5)            RLU  269.732
2  C[C@H](CCC(=O)NCCS(=O)(=O)O)[C@H]1CC[C@H]2[C@@H]3CC[C@@H]4C[C@H](O)CC[C@]4(C)[C@H]3CC[C@]12C  human TAS2R4 (Homo sapiens, UniProt Q9NYW5)            RLU  132.165
3  C[C@H](CCC(=O)O)[C@H]1CC[C@H]2[C@@H]3[C@@H](O)C[C@@H]4C[C@H](O)CC[C@]4(C)[C@H]3CC[C@]12C  human TAS2R4 (Homo sapiens, UniProt Q9NYW5)            RLU  166.203
4  C[C@H](CCC(=O)NCCS(=O)(=O)O)[C@H]1CC[C@H]2[C@@H]3[C@H](O)C[C@@H]4C[C@H](O)CC[C@]4(C)[C@H]3C[C@H](O)[C@]12C  human TAS2R4 (Homo sapiens, UniProt Q9NYW5)            RLU  267.596
5  C[C@H](CCC(=O)O)[C@H]1CC[C@H]2[C@@H]3CC[C@@H]4C[C@H](O)CC[C@]4(C)[C@H]3C[C@H](O)[C@]12C  human TAS2R4 (Homo sapiens, UniProt Q9NYW5)            RLU   389.33
6  C[C@H](CCC(=O)NCC(=O)O)[C@H]1CC[C@H]2[C@@H]3[C@H](O)C[C@@H]4C[C@H](O)CC[C@]4(C)[C@H]3C[C@H](O)[C@]12C  human TAS2R4 (Homo sapiens, UniProt Q9NYW5)            RLU  141.876

The origin of these recorded values is paper PMC10247784.
